- study_system: LAR-oxidized (Leukocyte common antigen-related, LAR) (Homo sapiens)
- Sequence (P10586 30-1907): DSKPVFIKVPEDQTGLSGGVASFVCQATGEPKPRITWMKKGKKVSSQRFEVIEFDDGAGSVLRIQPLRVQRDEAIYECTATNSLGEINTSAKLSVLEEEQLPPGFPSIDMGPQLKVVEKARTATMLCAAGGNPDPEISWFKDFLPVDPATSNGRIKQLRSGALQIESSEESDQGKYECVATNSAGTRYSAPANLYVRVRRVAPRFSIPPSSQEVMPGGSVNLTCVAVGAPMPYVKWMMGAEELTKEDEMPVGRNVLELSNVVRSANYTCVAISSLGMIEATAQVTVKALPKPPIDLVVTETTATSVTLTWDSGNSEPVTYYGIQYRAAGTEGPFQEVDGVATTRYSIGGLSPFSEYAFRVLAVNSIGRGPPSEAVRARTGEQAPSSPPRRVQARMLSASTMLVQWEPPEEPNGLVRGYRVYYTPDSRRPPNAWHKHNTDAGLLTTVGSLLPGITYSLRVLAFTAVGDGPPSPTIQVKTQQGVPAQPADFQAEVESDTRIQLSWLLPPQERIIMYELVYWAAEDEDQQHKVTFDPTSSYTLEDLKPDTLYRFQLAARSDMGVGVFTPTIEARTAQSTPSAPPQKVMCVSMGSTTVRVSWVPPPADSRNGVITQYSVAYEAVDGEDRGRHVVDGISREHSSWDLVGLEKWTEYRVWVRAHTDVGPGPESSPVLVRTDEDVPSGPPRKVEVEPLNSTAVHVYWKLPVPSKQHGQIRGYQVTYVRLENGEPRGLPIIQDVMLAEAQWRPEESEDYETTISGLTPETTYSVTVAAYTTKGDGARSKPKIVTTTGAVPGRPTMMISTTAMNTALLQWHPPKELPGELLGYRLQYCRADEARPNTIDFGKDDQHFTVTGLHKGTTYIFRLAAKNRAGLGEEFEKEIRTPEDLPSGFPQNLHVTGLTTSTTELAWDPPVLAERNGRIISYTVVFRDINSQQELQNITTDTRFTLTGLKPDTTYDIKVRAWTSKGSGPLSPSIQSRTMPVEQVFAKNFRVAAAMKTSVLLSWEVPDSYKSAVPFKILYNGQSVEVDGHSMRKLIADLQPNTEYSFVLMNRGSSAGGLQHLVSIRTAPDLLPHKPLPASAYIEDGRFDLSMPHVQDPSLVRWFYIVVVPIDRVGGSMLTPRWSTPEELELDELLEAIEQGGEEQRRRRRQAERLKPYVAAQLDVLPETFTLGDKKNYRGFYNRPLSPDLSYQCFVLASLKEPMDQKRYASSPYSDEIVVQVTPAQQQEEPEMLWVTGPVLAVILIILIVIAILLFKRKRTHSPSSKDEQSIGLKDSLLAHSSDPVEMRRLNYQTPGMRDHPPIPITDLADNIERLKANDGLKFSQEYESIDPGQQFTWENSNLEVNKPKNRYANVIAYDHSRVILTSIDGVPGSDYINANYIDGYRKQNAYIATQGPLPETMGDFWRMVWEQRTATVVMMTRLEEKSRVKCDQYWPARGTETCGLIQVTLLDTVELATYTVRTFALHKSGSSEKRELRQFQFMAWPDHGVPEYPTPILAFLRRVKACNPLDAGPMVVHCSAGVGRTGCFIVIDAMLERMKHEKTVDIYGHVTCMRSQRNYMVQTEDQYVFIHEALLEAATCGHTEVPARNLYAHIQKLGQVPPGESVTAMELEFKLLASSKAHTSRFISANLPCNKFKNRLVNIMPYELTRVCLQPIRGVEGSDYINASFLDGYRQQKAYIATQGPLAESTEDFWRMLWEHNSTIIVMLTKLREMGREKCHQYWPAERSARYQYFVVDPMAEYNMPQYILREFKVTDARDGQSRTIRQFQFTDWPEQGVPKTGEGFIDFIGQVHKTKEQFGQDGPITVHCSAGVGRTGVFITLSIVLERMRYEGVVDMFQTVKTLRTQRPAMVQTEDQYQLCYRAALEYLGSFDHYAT
- method: RPTP assay, standard assay conditions: phosphatase activity of oxidized LAR (DiFMUP substrate, TCEP reduction)
- Type: biochemical
- assay_conditions: Table 1; Formula II, potassium salt, R1 and R2 para to boron; read-out: LAR-ox Ki
Please respond with reported Ki for every item in the list.
Give bare numbers, in µM.

Look over these answered cases.
[
  {
    "structure_smiles_string": "F[B-](F)(c1ccc(Cl)cc1)c1ccc(Cl)cc1",
    "study_system": "LAR-oxidized (Leukocyte common antigen-related, LAR) (Homo sapiens)",
    "Ki / µM": 4
  },
  {
    "structure_smiles_string": "F[B-](F)(c1ccccc1)c1ccccc1",
    "study_system": "LAR-oxidized (Leukocyte common antigen-related, LAR) (Homo sapiens)",
    "Ki / µM": 5
  },
  {
    "structure_smiles_string": "Fc1ccc([B-](F)(F)c2ccc(F)cc2)cc1",
    "study_system": "LAR-oxidized (Leukocyte common antigen-related, LAR) (Homo sapiens)",
    "Ki / µM": 4
  }
]

(Q) Can you share its Ki? I mean this compound: `Fc1ccc([B-](F)(F)c2ccc(-c3ccccc3)cc2)cc1`
(A) 1

###

- study_system: LAR-oxidized (Leukocyte common antigen-related, LAR) (Homo sapiens)
- method: RPTP assay, standard assay conditions: phosphatase activity of oxidized LAR (DiFMUP substrate, TCEP reduction)
- Format: biochemical
- assay_conditions: Table 2; Formula III, R1 and R2 para to boron; read-out: LAR-ox Ki
For each of the molecules below, state its Ki.
Numbers only, in µM.

[
  {
    "structure_smiles_string": "OB(c1ccc(F)cc1)c1ccc(-c2ccccc2)cc1",
    "Ki / µM": 1
  }
]

(Q) Suppose we examine the molecule `OB(c1ccccc1)c1ccccc1` ; what Ki value has been reported?
(A) 20

###

Exercise: state measured pKi for each of the compounds provided.
- study_system: PTPσ-oxidized (Homo sapiens, UniProt Q13332)
- Sequence (Q13332 30-1948): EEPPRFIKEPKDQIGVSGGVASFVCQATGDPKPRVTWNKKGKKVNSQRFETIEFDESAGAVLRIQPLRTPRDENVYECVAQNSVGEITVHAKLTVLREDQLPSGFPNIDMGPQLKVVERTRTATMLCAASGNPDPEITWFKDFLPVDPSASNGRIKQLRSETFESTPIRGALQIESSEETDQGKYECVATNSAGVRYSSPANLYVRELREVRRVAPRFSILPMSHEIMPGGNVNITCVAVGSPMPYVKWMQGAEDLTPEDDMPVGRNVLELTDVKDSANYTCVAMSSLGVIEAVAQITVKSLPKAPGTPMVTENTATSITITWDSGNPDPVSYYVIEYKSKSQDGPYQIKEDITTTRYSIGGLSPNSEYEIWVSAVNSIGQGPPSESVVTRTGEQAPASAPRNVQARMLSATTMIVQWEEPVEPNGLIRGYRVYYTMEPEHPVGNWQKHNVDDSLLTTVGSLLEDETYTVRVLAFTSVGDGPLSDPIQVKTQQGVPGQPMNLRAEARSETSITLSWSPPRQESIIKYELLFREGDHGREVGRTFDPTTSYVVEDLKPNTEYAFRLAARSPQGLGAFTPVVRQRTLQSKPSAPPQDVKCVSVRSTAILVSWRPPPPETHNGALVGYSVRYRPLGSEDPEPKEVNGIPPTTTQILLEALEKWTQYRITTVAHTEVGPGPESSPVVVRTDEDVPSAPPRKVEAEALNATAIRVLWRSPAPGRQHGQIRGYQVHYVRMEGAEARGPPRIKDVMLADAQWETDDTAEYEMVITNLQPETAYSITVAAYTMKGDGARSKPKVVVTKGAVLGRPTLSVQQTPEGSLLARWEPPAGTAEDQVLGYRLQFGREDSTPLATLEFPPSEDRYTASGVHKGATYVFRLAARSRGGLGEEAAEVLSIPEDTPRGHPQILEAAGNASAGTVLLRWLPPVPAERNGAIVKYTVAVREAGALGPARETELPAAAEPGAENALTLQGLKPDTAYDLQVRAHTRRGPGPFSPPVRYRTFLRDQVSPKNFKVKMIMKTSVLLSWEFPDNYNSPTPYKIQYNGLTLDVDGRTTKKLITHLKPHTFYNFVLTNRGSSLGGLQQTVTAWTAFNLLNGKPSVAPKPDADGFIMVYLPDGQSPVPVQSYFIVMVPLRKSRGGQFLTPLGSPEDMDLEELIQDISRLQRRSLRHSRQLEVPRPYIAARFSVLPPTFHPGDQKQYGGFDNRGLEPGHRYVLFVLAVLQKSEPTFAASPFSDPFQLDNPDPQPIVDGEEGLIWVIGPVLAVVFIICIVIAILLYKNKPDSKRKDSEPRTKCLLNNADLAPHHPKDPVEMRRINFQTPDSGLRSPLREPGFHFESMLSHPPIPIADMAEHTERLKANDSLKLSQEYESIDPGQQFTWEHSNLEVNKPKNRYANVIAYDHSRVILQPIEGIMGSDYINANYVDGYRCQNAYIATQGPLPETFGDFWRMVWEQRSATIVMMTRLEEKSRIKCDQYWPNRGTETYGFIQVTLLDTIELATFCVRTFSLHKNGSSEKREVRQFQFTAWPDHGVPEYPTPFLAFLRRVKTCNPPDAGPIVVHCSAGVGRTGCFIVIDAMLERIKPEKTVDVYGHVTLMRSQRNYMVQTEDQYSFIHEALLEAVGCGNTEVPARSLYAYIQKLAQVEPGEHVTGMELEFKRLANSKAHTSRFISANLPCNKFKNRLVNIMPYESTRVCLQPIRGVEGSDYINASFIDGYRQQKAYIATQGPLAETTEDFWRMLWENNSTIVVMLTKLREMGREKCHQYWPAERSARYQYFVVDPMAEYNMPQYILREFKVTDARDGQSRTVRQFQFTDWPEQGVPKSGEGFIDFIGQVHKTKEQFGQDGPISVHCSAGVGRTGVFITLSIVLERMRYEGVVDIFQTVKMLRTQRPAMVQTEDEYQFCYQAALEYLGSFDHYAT
- method: RPTP assay, standard assay conditions: phosphatase activity of oxidized PTPσ
- Assay type: biochemical
- assay_conditions: read-out: PTPσ-oxidized Ki
Answers are plain numbers, as −log10 of the molar value.

[
  {
    "structure_smiles_string": "Nc1ccc2c(c1)B(O)OCC2",
    "measured_result": 4.00
  }
]

Alright, here's another compound for you.
(Q) Given the entry `F[B-](F)(c1ccccc1)c1ccccc1` , report its measured pKi.
(A) 5.40

###

- study_system: LAR-oxidized (Leukocyte common antigen-related, LAR) (Homo sapiens)
- method: RPTP assay, standard assay conditions: phosphatase activity of oxidized LAR (DiFMUP substrate, TCEP reduction)
- Format: biochemical
- assay_conditions: Table 3; Formula IV; read-out: LAR-ox Ki
Exercise: state measured pKi for each of the compounds provided.
Numbers only, as −log10 of the molar value.

[
  {
    "structure_smiles_string": "Nc1ccc2c(c1)B(O)OCC2",
    "pKi": 4.24
  }
]

Proceed to the following item.
(Q) GET /values?readout=pKi&item= `OB1OCCc2ccccc21`
(A) 3.30

###

- study_system: PTPσ-oxidized (Homo sapiens)
- method: RPTP assay, standard assay conditions: phosphatase activity of oxidized PTPσ
- Format: biochemical
- assay_conditions: read-out: PTPσ-oxidized Ki
pKi: −log10 of the molar value.
Task for the reader: assign each of the following molecules its reported pKi.

[
  {
    "structure_smiles_string": "Nc1ccc2c(c1)COB2O",
    "value_type": "pKi",
    "measured_result": "< 3.00"
  },
  {
    "structure_smiles_string": "OB1OCc2cc(F)ccc21",
    "value_type": "pKi",
    "measured_result": "< 3.00"
  }
]

// next entry
(Q) Sample `OB1OCCc2cc(F)ccc21` — what was its pKi?
(A) < 3.00

Cited source for all entries: patent US10973835B2
